Reported H1.0 immunofluorescence intensity values are given for each entry in this list.
system: HCC1569; assay: H1.0 immunofluorescence intensity relative to DMSO (% of DMSO); higher = stronger H1.0 induction, active = 140 or more; details: concentration: 10 µM; 24 h
assay metric: H1.0 immunofluorescence intensity

[[record]]
molecule = "CC1CCC(C(C)(C)O)CC2=C1CCC2C (single isomer, unassigned; (-)) [(-)-Guaiol]"
reported_measurement = 106

[[record]]
molecule = "Cl.O=C(CCCN1CCC(O)(c2cccc(C(F)(F)F)c2)CC1)c1ccc(F)cc1 [Trifluperidol hydrochloride]"
reported_measurement = 105

[[record]]
molecule = "C=CC(C)(O)CCC1C(C)(O)CCC2C(C)(C)CCCC21C (stereo unspecified) [Sclareol]"
reported_measurement = 94.7

[[record]]
molecule = "CC(Cc1ccccc1)Nc1ncnc2c1ncn2C1OC(CO)C(O)C1O (stereo not drawn) [R(-)-N6-(2-Phenylisopropyl)adenosine]"
reported_measurement = 102

[[record]]
molecule = "Cl.NCCNC(=O)c1ccc(Cl)cc1 [Ro 16-6491 hydrochloride]"
reported_measurement = 107

[[record]]
molecule = "COc1cc2ccc(=O)oc2cc1O [Scopoletin]"
reported_measurement = 88.9

[[record]]
molecule = "CCC1OC(=O)C(C)C(OC2CC(C)(OC)C(O)C(C)O2)C(C)C(OC2OC(C)CC(N(C)C)C2O)C(C)(O)CC(C)C(=NOCOCCOC)C(C)C(O)C1(C)O (stereo unspecified) [Roxithromycin]"
reported_measurement = 92.1

[[record]]
molecule = "CC(=Cc1ccc(C(=O)O)cc1)c1ccc2c(c1)C(C)(C)CCC2(C)C"
reported_measurement = 111

[[record]]
molecule = "O=C(c1ccc(Nc2nccc(-c3cc4ccccc4s3)n2)cc1)N1CCC(N2CCCC2)CC1"
reported_measurement = 174

[[record]]
molecule = "NC(C(=O)O)C1CC1C(=O)O [(2S,1'S,2'S)-2-(carboxycyclopropyl)glycine]"
reported_measurement = 83.4

[[record]]
molecule = "CCCCCCCCC=CCCCCCCCC(=O)NCCc1ccc(O)c(O)c1 [Oleoyl dopamine]"
reported_measurement = 118

[[record]]
molecule = "O=C(O)COc1ccc(C(=O)c2cccs2)c(Cl)c1Cl [[2,3-dichloro-4-(2-thienylcarbonyl)phenoxy]acetic acid]"
reported_measurement = 109

[[record]]
molecule = "C[N+](C)(C)CCOC(N)=O.[Cl-] [Carbachol]"
reported_measurement = 96.9

[[record]]
molecule = "CCC12CCCN3CCc4c(n(c5ccccc45)C(O)(C(=O)OC)C1)C32 (stereo unspecified) [Vincamine]"
reported_measurement = 86.2

[[record]]
molecule = "COc1cccc(OC)c1OCCNCC1COc2ccccc2O1.Cl (stereo unspecified) [WB-4101 hydrochloride]"
reported_measurement = 93.3

[[record]]
molecule = "CC1(C)CCC2(C(=O)O)CCC3(C)C(=CCC4C5(C)CCC(O)C(C)(C)C5CCC43C)C2C1 (stereo unspecified) [Oleanolic acid]"
reported_measurement = 89.8


----------
system: HCC1569; test: cell number relative to DMSO (% of DMSO); higher = more cells (less growth inhibition / toxicity); conditions: concentration: 10 µM; 24 h
assay metric: cell number

[[record]]
molecule = "CSc1nc(N)c2ncn(C3OC(COP(=O)([O-])OP(=O)([O-])[O-])C(O)C3O)c2n1.[Na+].[Na+].[Na+] (centres undefined) [2-Methylthioadenosine diphosphate trisodium]"
reported_measurement = 99.9

[[record]]
molecule = "Oc1ccc(Cn2cc[nH]c2=S)cc1 [1-(4-Hydroxybenzyl)imidazole-2-thiol]"
reported_measurement = 102

[[record]]
molecule = "C=CC[C@H](N)C(=O)O"
reported_measurement = 101

[[record]]
molecule = "CCCCCC=CCC(O)C=CC=CCCC(=O)O [Tetranor-12(R)-HETE]"
reported_measurement = 104

[[record]]
molecule = "Nc1[nH]nc2nc3ccccc3nc12"
reported_measurement = 99.6

[[record]]
molecule = "CCOC(=O)CCNc1cc(N2CCc3ccccc3CC2)nc(-c2ccccn2)n1"
reported_measurement = 78.8

[[record]]
molecule = "O=C(O)c1ccc(O)c2ncccc12 [8-hydroxy-5-quinolinecarboxylic acid]"
reported_measurement = 102

[[record]]
molecule = "CN(C)CCC=C1c2ccccc2COc2ccc(CC(=O)O)cc21"
reported_measurement = 102

[[record]]
molecule = "OCC1OC(n2cnc3c(NC4CCCCC4)ncnc32)C(O)C1O (centres undefined)"
reported_measurement = 100


----------
system: HCC1569; experiment: cell number relative to DMSO (% of DMSO); higher = more cells (less growth inhibition / toxicity); conditions: concentration: 10 µM; 24 h
Please mark 1 if the recorded cell number is equal to or greater than 100, and -1 if it falls below.

[[record]]
compound = "CCCCC1CCC(c2nc(-c3ccncc3)no2)CC1 (configuration not stated) [4-[5-(4-butylcyclohexyl)-1,2,4-oxadiazol-3-yl]pyridine]"
cat = -1

[[record]]
compound = "CNC(=O)c1cc2c(cn1)[nH]c1ccccc12 [N-Methyl-beta-carboline-3-carboxamide]"
cat = 1

[[record]]
compound = "Nc1ccn(C2CCC(CO)O2)c(=O)n1 (configuration not stated) [\"2',3' - Dideoxycytidine\"]"
cat = 1

[[record]]
compound = "CCCCOc1ccc(-c2cncc(C(=O)NCc3cccnc3N3CCOCC3)c2)cc1Cl"
cat = -1

[[record]]
compound = "COc1ccc(-c2cc(=O)c3c(O)cc(OC4OC(COC5OC(C)C(O)C(O)C5O)C(O)C(O)C4O)cc3o2)cc1O (configuration not stated) [Diosmin]"
cat = 1

[[record]]
compound = "CNCCC(Oc1ccc(C(F)(F)F)cc1)c1ccccc1.Cl (stereo not drawn) [S-(+)-Fluoxetine hydrochloride]"
cat = -1

[[record]]
compound = "CS(=O)(=O)O.Cc1ccc(NC(=O)c2ccc(CN3CCN(C)CC3)cc2)cc1Nc1nccc(-c2cccnc2)n1 [Imatinib]"
cat = -1

[[record]]
compound = "CCC1=CC2CN(C1)Cc1c([nH]c3ccccc13)C(C(=O)OC)(c1cc3c(cc1OC)N(C)C1C(O)(C(=O)OC)C(OC(C)=O)C4(CC)C=CCN5CCC31C54)C2 (configuration not stated) [Vinorelbine]"
cat = -1

[[record]]
compound = "CCOP(=O)(OCC)C(=Cc1cc(C(C)(C)C)c(O)c(C(C)(C)C)c1)P(=O)(OCC)OCC"
cat = -1


----------
system: HCC1569; assay: cell number relative to DMSO (% of DMSO); higher = more cells (less growth inhibition / toxicity); settings: concentration: 10 µM; 24 h
assay metric: cell number

[[record]]
compound = "CC(C)CC(NC(=O)C(COC(C)(C)C)NC(=O)C(Cc1ccc(O)cc1)NC(=O)C(CO)NC(=O)C(Cc1c[nH]c2ccccc12)NC(=O)C(Cc1cnc[nH]1)NC(=O)C1CCC(=O)N1)C(=O)NC(CCCN=C(N)N)C(=O)N1CCCC1C(=O)NNC(N)=O (stereo not drawn)"
reported_measurement = 100

[[record]]
compound = "CCCCCC(O)C=CC=O (racemic)"
reported_measurement = 99.2

[[record]]
compound = "NC(N)=NCc1cccc(I)c1.NC(N)=NCc1cccc(I)c1.O=S(=O)(O)O [m-Iodobenzylguanidine hemisulfate]"
reported_measurement = 109

[[record]]
compound = "CSc1nc(-c2ccnc(NC(C)c3ccccc3)c2)c(-c2ccc(F)cc2)[nH]1 (stereo not drawn)"
reported_measurement = 94.8

[[record]]
compound = "COc1cc2ncnc(Nc3cccc(Cl)c3)c2cc1OC"
reported_measurement = 83.8

[[record]]
compound = "COc1cc2c(N3CCN(C(=O)Nc4ccc(OC(C)C)cc4)CC3)ncnc2cc1OCCCN1CCCCC1"
reported_measurement = 101

[[record]]
compound = "O=[N+]([O-])c1cccc2c(Br)[nH]nc12"
reported_measurement = 116

[[record]]
compound = "CC(C)S(=O)(=O)N[C@H]1CCOC[C@@H]1c1ccc(-c2ccc(C#N)s2)cc1"
reported_measurement = 100

[[record]]
compound = "O=C1Nc2cc(Br)ccc2C1=C1N=c2ccccc2=C1NO [GSK-3 Inhibitor IX]"
reported_measurement = 56.3

[[record]]
compound = "CCCCCCCCC=CCCCCCCCCCCCC(=O)O [13(E)-Docosenoic acid]"
reported_measurement = 104

[[record]]
compound = "CCCCCCCCCCCC=CCC=CCCCC(=O)O [5(Z), 8(Z)-Eicosadienoic acid]"
reported_measurement = 101

[[record]]
compound = "CCCCN1CCC(COC(=O)c2cc(Cl)c(N)c3c2OCCO3)CC1.Cl"
reported_measurement = 102

[[record]]
compound = "CCCCCC(O)C=CC=CCCCCCCCCCC(=O)O (stereo not drawn)"
reported_measurement = 99.4

[[record]]
compound = "CC(C)(N)c1ccc(-c2nc3ccccc3nc2-c2ccccc2)cc1"
reported_measurement = 95.6

[[record]]
compound = "COc1cc(CNC(=O)CCCCCCC(C)C)ccc1O [Dihydrocapsaicin]"
reported_measurement = 96.7

[[record]]
compound = "NCC1OC(OC2C(N)CC(N)C(OC3OC(CO)C(O)C(N)C3O)C2O)C(O)C(O)C1O.O=S(=O)(O)O (stereo not drawn) [Kanamycin sulfate]"
reported_measurement = 99.5

[[record]]
compound = "Cl.Cn1ccc2cc3c(cc21)CCN3C(=O)Nc1cccnc1"
reported_measurement = 101

[[record]]
compound = "Cc1cccc(Nc2cc(Cl)nc(SCC(=O)O)n2)c1C"
reported_measurement = 101

[[record]]
compound = "NC1CCN(c2c(F)cc3c(=O)c(C(=O)O)cn(C4CC4)c3c2Cl)C1 (stereo not drawn)"
reported_measurement = 103

[[record]]
compound = "Cl.O=C(CCCN1CCC(O)(c2cccc(C(F)(F)F)c2)CC1)c1ccc(F)cc1 [Trifluperidol hydrochloride]"
reported_measurement = 101

[[record]]
compound = "CC[N+](C)(C)Cc1ccccc1Br.Cc1ccc(S(=O)(=O)[O-])cc1 [Bretylium tosylate]"
reported_measurement = 83.4

[[record]]
compound = "Cl.O[Si](CCCN1CCCCC1)(c1ccc(F)cc1)C1CCCCC1 (stereo not drawn) [Hexahydro-sila-difenidol hydrochloride, p-fluoro analog]"
reported_measurement = 97.5

[[record]]
compound = "N=C([NH3+])N1CCc2ccccc2C1.N=C([NH3+])N1CCc2ccccc2C1.O=S(=O)([O-])[O-] [Debrisoquin sulfate]"
reported_measurement = 104

[[record]]
compound = "CN(C)CC(C)(C)CNc1nn2c(-c3ccccc3)nnc2cc1C1CCC1"
reported_measurement = 101

[[record]]
compound = "CSc1ccc(/C=C2/C(C)=C(CC(=O)O)c3cc(F)ccc32)cc1"
reported_measurement = 103

[[record]]
compound = "CC(C=CC1=C(C)CCCC1(C)C)=CC=CC(C)=CC(=O)O [13-cis Retinoic acid]"
reported_measurement = 98.1

[[record]]
compound = "Cn1c(=O)c2[nH]c(C3CCCC3)nc2n(C)c1=O"
reported_measurement = 97.7

[[record]]
compound = "CC(COc1ccccc1)N(CCCl)Cc1ccccc1.Cl (stereo not drawn) [Phenoxybenzamine.HCl]"
reported_measurement = 106

[[record]]
compound = "O=c1c(OC2OC(C(O)CO)C(O)C2O)c(-c2ccc(O)c(O)c2)oc2cc(O)cc(O)c12 (stereo not drawn)"
reported_measurement = 103

[[record]]
compound = "COc1cc(C2CC(=O)c3c(O)cc(O)cc3O2)ccc1O (stereo not drawn)"
reported_measurement = 97.9

[[record]]
compound = "C=CC(=O)Nc1cc2c(Nc3ccc(F)c(Cl)c3)ncnc2cc1OCCCN1CCOCC1.Cl.Cl"
reported_measurement = 75.8

[[record]]
compound = "CCC(C)(C)c1ccc(CC(C)CN2CC(C)OC(C)C2)cc1 (stereo not drawn)"
reported_measurement = 94.1

[[record]]
compound = "Cc1nn(C)c2nc(NNC(=O)Nc3cc(Cl)nc(Cl)c3)cc(C(C)C)c12"
reported_measurement = 66

